test system: NCI-H226 lung; experiment: NCI-60 one-dose screen, 48 h (100 = growth as untreated, 0 = no growth, -100 = all killed); conditions: 10 µM unless noted
Compounds without any hit were thinned out: in the full panel of roughly 83,000, 20% have a hit.
In this scheme, each record receives a class according to its growth; the ranges are low end (below 20%), middle (20% to below 70%), high end (70% or more)

Study these solved cases before continuing.
>  <molecule>
COc1ccc(-c2cnc(NC(=O)CCCCCCNC(=O)C(O)(O)C(F)(F)F)s2)cc1

>  <discrete_label>
low end

$$$$
>  <molecule>
COc1ccc(-c2c3c(cn2Cc2cccc(OC)c2)-c2oncc2CCC3)cc1

>  <discrete_label>
high end

$$$$
>  <molecule>
CC(Nc1ncnc2ccc(-c3cnc4cnccn34)cc12)c1ccccc1 (centres undefined)

>  <discrete_label>
middle

$$$$
>  <molecule>
N#Cc1cnc2ccc(-c3cnc4n[nH]nc4c3)cc2c1N1CCc2cc(F)c(Cl)cc21

>  <discrete_label>
low end

$$$$
>  <molecule>
Cc1ccc(CSC2=C(Cl)CN(c3ccc(Cl)cc3)C2=O)cc1

>  <discrete_label>
high end

$$$$
>  <molecule>
COc1ccccc1/C=C/C(=O)c1nnn(-c2ccc(F)cc2)c1C

>  <discrete_label>
middle

$$$$
>  <molecule>
CCCc1cc2cc(-n3nc(CC)c4c3CC(C)(C)CC4=O)cc(NC3CCC(O)CC3)c2c(=O)[nH]1 (centres undefined)

>  <discrete_label>
low end

$$$$
>  <molecule>
CC(Nc1c(C#N)cnc2ccc(-c3cncc(-c4n[nH]c(=O)o4)c3)cc12)c1ccccc1 (centres undefined)

>  <discrete_label>
low end

$$$$

Sort into band: C=C(C)[C@@H]1CC[C@]2(COCCCNCCCN)CC[C@]3(C)[C@H](CC[C@@H]4[C@@]5(C)CC[C@H](O)C(C)(C)[C@@H]5CC[C@]43C)[C@@H]12
low end

For the record OCC(Nc1ncnc2ccc(-c3cnc4cnccn34)cc12)c1ccccc1 (centres undefined) , report the class its growth corresponds to.
middle

Given Nc1nc(=O)n([C@H]2C[C@H](O)[C@@H](CO)O2)cc1C=O , name the class its growth places it in.
high end

Hi there! Could you help me figure out the category for CC(C)(C)c1cc(NC(=O)Nc2ccc(-c3cn4c5c(sc4n3)CCc3cn(CCCN4CCCCC4)cc3-5)cc2)no1 please?
high end

GET /class?item= O=C(CCCCCCNC(=O)C(O)(O)C(F)(F)F)Nc1ccc(-c2ccccc2)cc1
middle

Looking at CC(C)(C)Nc1nc2c(OCCc3ccccc3)cccn2c1-c1cccc(Oc2ccccc2)c1 , which class would you pick?
low end

For the record COc1ccc2c(c1)c(-c1nnc(N)nc1-c1c[nH]c3ccc(F)cc13)cn2C , report the class its growth corresponds to.
middle

State the class of the molecule shown: CN1CCN(Cc2ccc(NC(=O)c3cncc(C#Cc4cnc(N)nc4)c3)cc2C(F)(F)F)CC1
low end
